Origin of measurements: patent US11873288B2

Target Under Test: hFAAH (Homo sapiens, UniProt O00519)
Sequence (O00519 whole entry): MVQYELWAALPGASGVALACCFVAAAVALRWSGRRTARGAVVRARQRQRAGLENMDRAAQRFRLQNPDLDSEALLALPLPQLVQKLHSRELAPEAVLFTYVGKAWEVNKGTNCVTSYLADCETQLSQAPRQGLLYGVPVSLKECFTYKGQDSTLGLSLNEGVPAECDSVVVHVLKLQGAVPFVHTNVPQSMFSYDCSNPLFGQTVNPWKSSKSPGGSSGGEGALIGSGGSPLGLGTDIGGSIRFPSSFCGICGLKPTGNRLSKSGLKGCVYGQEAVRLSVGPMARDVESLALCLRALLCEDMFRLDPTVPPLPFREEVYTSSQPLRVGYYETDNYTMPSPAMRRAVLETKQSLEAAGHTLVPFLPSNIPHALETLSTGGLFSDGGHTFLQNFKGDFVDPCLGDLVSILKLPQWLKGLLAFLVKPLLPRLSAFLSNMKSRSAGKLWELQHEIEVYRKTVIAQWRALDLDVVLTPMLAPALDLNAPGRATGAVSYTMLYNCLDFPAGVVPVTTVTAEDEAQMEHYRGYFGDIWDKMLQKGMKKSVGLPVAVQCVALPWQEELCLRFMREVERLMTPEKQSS
Test Details: recombinant FAAH enzyme with fluorescent substrate OMP (hFAAH IC50, screen)
Catalogue of pIC50 readings, one per entry.
By convention, pIC50 is the negative base-10 log of a molar concentration.

// solved cases for pIC50 follow
Given the entry O=C(Nc1cccnc1)N1CCC(Cc2cnc3ccccc3c2)CC1 , report its measured pIC50.
7.85

// next record O=C(Nc1ccc(C(F)(F)F)cc1)N1CCC(Cc2cccc(Oc3ccc(C(F)(F)F)cn3)c2)CC1
8.10

// next record O=C(Nc1ccc(OC(F)(F)F)cc1)N1CCC(Cc2cnc3ccccc3c2)CC1
6.41

// next record O=C(Nc1ccc(C(F)(F)F)cn1)N1CCC(Cc2cccc(Oc3ccc(C(F)(F)F)cn3)c2)CC1
8.52

More entries:
Given the entry O=C(Nc1cccnc1)N1CCC(Cc2cccc(Oc3ccc(C(F)(F)F)cn3)c2)CC1 , report its measured pIC50.
9.40

// next record O=C(Nc1ccccc1F)N1CCC(Cc2cnc3ccccc3c2)CC1
7.31

// next record Cc1noc(NC(=O)N2CCC(Cc3cccc(Oc4ccc(C(F)(F)F)cn4)c3)CC2)c1C
9.00

---

Catalogue of hFAAH k2 readings, one per entry.
Target Under Test: hFAAH (Homo sapiens, UniProt O00519)
Construct: made in house
Test Details: hFAAH inhibition kinetics (KD, k2)
Assay type: biochemical
Give a bare numeral; the unit min⁻¹ is implied.

Given the entry COc1ccc(NC(=O)N2CCC(Cc3ccc4ccccc4c3)CC2)cc1 [Compound B-8] , report its measured hFAAH k2.
0.26

// next record COc1ccc(NC(=O)N2CCC(Cc3cccc(Oc4ccc(C(F)(F)F)cn4)c3)CC2)cc1 [Compound B-9]
0.26

// next record COc1ccc(NC(=O)N2CCC(Cc3ccc4ccccc4n3)CC2)cc1 [Compound B-7]
0.28

More entries:
Given the entry COc1ccc(NC(=O)N2CCC(c3nc(-c4ccccc4)cs3)CC2)cc1 [Compound B-10] , report its measured hFAAH k2.
0.55

// next record COc1ccc(NC(=O)N2CCC(Cc3cnc4ccccc4c3)CC2)cc1 [Compound B-5]
0.37

---

Target Under Test: hsEH (Homo sapiens)
Catalogue of IC50 readings, one per entry.
Give a bare numeral; the unit nM is implied.

Given the entry O=C(Nc1cccnc1)N1CCC(Cc2cnc3ccccc3c2)CC1 [Compound B-6] , report its measured IC50.
4700

// next record O=C(Nc1ccc(C(F)(F)F)cc1)N1CCC(Cc2cccc(Oc3ccc(C(F)(F)F)cn3)c2)CC1 [Compound B-13]
7

// next record O=C(Nc1ccc(OC(F)(F)F)cc1)N[C@H]1CC[C@H](Oc2ccc(CO)cc2)CC1 [Compound A-24]
3

// next record COc1ccc(NC(=O)N2CCC(Cc3cnc4ccccc4c3)CC2)cc1 [Compound B-5]
130

---

Target Under Test: hsEH (Homo sapiens, UniProt P34913)
Sequence (P34913 1-555): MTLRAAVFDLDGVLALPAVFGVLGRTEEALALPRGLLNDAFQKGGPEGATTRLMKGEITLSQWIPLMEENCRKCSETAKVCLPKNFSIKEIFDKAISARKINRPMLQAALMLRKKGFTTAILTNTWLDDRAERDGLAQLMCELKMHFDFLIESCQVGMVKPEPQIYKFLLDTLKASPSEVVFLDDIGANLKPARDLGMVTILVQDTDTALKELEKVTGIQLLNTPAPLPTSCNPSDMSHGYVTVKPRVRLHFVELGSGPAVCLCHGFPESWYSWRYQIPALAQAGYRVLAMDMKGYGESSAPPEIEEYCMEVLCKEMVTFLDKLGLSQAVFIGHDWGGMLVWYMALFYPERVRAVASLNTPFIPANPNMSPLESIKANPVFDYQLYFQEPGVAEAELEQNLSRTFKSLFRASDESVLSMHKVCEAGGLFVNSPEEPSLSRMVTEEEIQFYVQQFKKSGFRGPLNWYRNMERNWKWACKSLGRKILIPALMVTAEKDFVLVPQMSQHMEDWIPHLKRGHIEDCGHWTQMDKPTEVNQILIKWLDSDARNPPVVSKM
Test Details: human sEH inhibition (hsEH IC50)
Format: biochemical
Catalogue of increase of activity/potency towards sEH readings, one per entry.
Give a bare numeral; the unit fold is implied.

Given the entry O=C(Nc1ccc(F)cc1)N1CCC(Cc2cnc3ccccc3c2)CC1 , report its measured increase of activity/potency towards sEH.
7

// next record COc1ccc(NC(=O)N2CCC(Cc3cnc4ccccc4c3)CC2)cc1
4

// next record O=C(Nc1ccc(OC(F)(F)F)cc1)N1CCC(Cc2cnc3ccccc3c2)CC1
80

Now for a further molecule.
Given the entry O=C(Nc1ccc(Cl)cc1)N1CCC(Cc2cnc3ccccc3c2)CC1 , report its measured increase of activity/potency towards sEH.
30

---

Target Under Test: hsEH (Homo sapiens, UniProt P34913)
Test Details: human sEH inhibition (hsEH IC50)
Assay type: biochemical
Measured Attribute: pIC50
By convention, pIC50 is the negative base-10 log of a molar concentration.

Given the entry O=C(Nc1ccccc1F)N1CCC(Cc2cnc3ccccc3c2)CC1 [Compound B-3] , report its measured pIC50.
6.10

// next record O=C(O)c1ccc(OC2CCN(C(=O)Nc3ccc(OC(F)(F)F)cc3)CC2)cc1 [Compound A-10]
8.10

Now for a further molecule.
Given the entry N#Cc1ccc(O[C@H]2CC[C@H](NC(=O)Nc3ccc(OC(F)(F)F)cc3)CC2)cc1 [Compound A-11] , report its measured pIC50.
8.30

---

Target Under Test: FAAH (Felis catus, UniProt A0ABI8A862)
Sequence (A0ABI8A862 1-541): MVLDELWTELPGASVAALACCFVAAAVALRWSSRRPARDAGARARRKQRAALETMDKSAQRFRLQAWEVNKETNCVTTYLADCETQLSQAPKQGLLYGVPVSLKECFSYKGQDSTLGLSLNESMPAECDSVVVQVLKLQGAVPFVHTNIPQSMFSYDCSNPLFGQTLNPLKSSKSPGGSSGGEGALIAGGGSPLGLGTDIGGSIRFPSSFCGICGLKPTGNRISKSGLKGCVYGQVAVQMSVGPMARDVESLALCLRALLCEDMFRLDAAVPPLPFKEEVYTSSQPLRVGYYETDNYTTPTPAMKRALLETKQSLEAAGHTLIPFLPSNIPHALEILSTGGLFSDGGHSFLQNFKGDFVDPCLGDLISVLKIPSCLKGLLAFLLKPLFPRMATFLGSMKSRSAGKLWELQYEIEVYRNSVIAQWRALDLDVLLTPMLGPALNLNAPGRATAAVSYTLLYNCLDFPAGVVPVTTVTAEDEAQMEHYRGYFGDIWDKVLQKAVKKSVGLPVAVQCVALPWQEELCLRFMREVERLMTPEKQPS
Catalogue of IC50 readings, one per entry.

// solved cases for IC50 follow
Given the entry O=C(Nc1ccc(OC(F)(F)F)cc1)N[C@H]1CC[C@H](Oc2ccc(C(=O)O)cc2)CC1 , report its measured IC50.
> 1000 nM

// next record O=C(Nc1ccc(OC(F)(F)F)cc1)N[C@H]1CC[C@H](Oc2ccc(O)cc2)CC1
130 nM

More entries:
Given the entry O=C(Nc1cccnc1)N1CCC(Cc2cccc(Oc3ccc(C(F)(F)F)cn3)c2)CC1 , report its measured IC50.
< 0.1 nM

// next record O=C(Nc1ccc(OC(F)(F)F)cc1)N[C@H]1CC[C@H](Oc2ccc(C(=O)OCc3ccccc3)cc2)CC1
> 1000 nM

---

Target Under Test: hsEH (Homo sapiens)
Sequence (P34913 1-555): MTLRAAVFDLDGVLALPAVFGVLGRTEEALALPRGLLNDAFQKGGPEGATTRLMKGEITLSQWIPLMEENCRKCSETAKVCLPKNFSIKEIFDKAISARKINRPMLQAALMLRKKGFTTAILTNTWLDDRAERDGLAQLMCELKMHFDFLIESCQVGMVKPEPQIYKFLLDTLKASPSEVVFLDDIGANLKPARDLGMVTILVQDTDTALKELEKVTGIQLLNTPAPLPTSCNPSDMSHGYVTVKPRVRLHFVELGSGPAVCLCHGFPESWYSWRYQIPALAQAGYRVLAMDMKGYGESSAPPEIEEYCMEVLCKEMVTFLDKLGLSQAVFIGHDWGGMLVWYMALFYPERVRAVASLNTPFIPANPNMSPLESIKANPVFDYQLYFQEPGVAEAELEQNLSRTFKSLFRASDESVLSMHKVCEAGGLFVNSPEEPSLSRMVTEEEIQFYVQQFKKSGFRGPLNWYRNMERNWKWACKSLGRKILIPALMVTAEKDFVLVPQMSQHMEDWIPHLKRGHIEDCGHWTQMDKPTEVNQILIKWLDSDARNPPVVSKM
Catalogue of log10(IC50) readings, one per entry.
log10 IC50, nM

// solved cases for log10(IC50) follow
Given the entry O=C(Nc1ccc(C(F)(F)F)cn1)N1CCC(Cc2cccc(Oc3ccc(C(F)(F)F)cn3)c2)CC1 , report its measured log10(IC50).
1.78

// next record O=C(Nc1ccc(OC(F)(F)F)cc1)N[C@H]1CC[C@H](Oc2ccc(C(=O)NCc3ccccc3)cc2)CC1
0.70

// next record Cc1nnc(-c2ccc(O[C@H]3CC[C@H](NC(=O)Nc4ccc(OC(F)(F)F)cc4)CC3)cc2)o1
0.60

More entries:
Given the entry COc1ccc(NC(=O)N2CCC(c3nc(-c4ccccc4)cs3)CC2)cc1 , report its measured log10(IC50).
2.76

// next record O=C(Nc1ccc(F)cc1)N[C@H]1CC[C@H](Oc2ccc(C(=O)O)cc2)CC1
1.26

// next record O=C(O)CNC(=O)c1ccc(O[C@H]2CC[C@H](NC(=O)Nc3ccc(OC(F)(F)F)cc3)CC2)cc1
0.30
